Listed compounds paired with reported pKi
target: human α-thrombin (Homo sapiens, UniProt P00734)
pKi: −log10 of the molar value. Counter-ions that a name gives are not always drawn.
READOUT: pKi

Cc1ccc(NS(=O)(=O)Cc2ccccc2)c(=O)n1CC(=O)NCCCONC(=N)N.O=C(O)C(F)(F)F = 7.28
Cc1ccc(NS(=O)(=O)Cc2ccc(Cl)c(Cl)c2)c(=O)n1CC(=O)NCCONC(=N)N [Example 24, trifluoroacetate] = 8.70
Cc1ccc(NS(=O)(=O)c2ccc3cc(Cl)ccc3c2)c(=O)n1CC(=O)NCCONC(=N)N [Example 85, trifluoroacetate] = 6.54
Cc1ccc(NS(=O)(=O)Cc2ccc(Cl)cc2)c(=O)n1CC(=O)NCCONC(=N)N [Example 16, trifluoroacetate] = 8.70

Cited source: patent US6350764B2
